assayed.target: Chromatin remodeling regulator CECR2 (Homo sapiens) (UniProt Q9BXF3)
Sequence (Q9BXF3 whole entry, looked up): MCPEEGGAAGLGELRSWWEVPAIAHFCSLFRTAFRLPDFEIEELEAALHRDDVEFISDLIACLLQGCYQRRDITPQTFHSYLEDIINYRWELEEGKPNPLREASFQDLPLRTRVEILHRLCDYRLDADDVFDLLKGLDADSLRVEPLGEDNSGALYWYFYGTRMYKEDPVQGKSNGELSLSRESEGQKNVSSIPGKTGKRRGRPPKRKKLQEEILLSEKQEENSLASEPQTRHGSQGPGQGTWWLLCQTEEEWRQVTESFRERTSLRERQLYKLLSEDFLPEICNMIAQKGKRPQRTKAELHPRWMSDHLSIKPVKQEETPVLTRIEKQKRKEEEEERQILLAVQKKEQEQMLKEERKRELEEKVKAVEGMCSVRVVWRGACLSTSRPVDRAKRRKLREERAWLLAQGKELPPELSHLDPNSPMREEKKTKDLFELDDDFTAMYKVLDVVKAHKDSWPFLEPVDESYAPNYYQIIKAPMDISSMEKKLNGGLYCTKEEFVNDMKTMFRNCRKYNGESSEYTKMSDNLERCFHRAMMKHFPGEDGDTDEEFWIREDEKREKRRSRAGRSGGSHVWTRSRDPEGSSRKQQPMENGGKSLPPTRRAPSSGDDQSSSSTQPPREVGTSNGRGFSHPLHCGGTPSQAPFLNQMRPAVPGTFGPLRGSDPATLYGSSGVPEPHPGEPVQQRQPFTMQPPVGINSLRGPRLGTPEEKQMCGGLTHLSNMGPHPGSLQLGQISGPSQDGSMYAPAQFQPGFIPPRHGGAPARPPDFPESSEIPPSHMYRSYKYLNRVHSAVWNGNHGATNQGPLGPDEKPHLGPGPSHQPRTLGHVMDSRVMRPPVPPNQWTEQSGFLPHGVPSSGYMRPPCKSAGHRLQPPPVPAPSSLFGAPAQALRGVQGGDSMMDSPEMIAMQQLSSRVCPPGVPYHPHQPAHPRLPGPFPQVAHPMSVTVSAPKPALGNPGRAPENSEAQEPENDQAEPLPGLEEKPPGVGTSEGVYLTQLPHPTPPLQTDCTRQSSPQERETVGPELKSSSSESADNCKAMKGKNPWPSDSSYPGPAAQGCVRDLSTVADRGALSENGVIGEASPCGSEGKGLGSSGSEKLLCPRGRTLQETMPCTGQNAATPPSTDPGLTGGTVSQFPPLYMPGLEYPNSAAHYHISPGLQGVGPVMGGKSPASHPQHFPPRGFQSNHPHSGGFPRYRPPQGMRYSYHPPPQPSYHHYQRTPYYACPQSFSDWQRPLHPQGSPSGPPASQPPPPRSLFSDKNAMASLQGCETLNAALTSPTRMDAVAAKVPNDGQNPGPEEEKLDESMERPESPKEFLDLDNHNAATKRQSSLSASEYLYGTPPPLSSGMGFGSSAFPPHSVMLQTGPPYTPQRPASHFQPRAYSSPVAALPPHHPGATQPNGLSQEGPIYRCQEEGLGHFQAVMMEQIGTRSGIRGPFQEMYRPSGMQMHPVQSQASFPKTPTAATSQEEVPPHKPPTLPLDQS
assay.overview: Binding affinity to human CECR2 expressed in Escherichia coli BL21(DE3)-R3-pRARE2 assessed as change in melting temperature at 25 uM by SYPRO orange based protein stability shift assay
Mark 0 for ΔTm values under 2 °C, and 1 for everything at or above.

Cc1noc(C)c1-c1cccc(NC(=O)CCCCCC(=O)NO)c1 : 0
Cc1noc(C)c1-c1cc(NC(=O)CCCCC(=O)NO)cc(C(=O)c2ccccc2)c1 : 0
Cc1noc(C)c1-c1cc(OCCCCCCCC(=O)NO)cc(C(=O)c2ccccc2)c1 : 1
Cc1noc(C)c1-c1cc(OCCCCCC(=O)NO)cc(C(=O)c2ccccc2)c1 : 0

Problem: Has Cc1noc(C)c1-c1cc(OCCCCCCC(=O)NO)cc(C(O)c2ccccc2)c1 (configuration not stated) a recorded ΔTm greater than or equal to 2 °C?
Result: 0

Problem: Has `Cc1noc(C)c1-c1cc(NC(=O)CCCCCC(=O)NO)cc(C(=O)c2ccccc2)c1` a recorded ΔTm greater than or equal to 2 °C?
Result: 0

---

Test system: MV4-11
assay.overview: Antiproliferative activity against human MV4-11 cells assessed as reduction in cell viability incubated for 72 hrs by Alamar blue assay
Type: functional, cell-based
condition.details: MV4-11, 72 h
measure: IC50 (nM)
Record the value in nM, omitting the unit from your answer.

Examples with answers:
Cc1noc(C)c1-c1cc(NC(=O)CCCCCCC(=O)NO)cc(C(=O)c2ccccc2)c1 : 910
Cc1sc2c(c1C)C(c1ccc(Cl)cc1)=N[C@@H](CC(=O)OC(C)(C)C)c1nnc(C)n1-2 (racemic) : 240

Problem: For `Cc1noc(C)c1-c1cc(NC(=O)CCCCCC(=O)NO)cc(C(=O)c2ccccc2)c1` , write its IC50.
Result: 1040

---

assayed.target: Transcription initiation factor TFIID subunit 1 (Homo sapiens) (UniProt P21675)
Sequence (P21675 whole entry): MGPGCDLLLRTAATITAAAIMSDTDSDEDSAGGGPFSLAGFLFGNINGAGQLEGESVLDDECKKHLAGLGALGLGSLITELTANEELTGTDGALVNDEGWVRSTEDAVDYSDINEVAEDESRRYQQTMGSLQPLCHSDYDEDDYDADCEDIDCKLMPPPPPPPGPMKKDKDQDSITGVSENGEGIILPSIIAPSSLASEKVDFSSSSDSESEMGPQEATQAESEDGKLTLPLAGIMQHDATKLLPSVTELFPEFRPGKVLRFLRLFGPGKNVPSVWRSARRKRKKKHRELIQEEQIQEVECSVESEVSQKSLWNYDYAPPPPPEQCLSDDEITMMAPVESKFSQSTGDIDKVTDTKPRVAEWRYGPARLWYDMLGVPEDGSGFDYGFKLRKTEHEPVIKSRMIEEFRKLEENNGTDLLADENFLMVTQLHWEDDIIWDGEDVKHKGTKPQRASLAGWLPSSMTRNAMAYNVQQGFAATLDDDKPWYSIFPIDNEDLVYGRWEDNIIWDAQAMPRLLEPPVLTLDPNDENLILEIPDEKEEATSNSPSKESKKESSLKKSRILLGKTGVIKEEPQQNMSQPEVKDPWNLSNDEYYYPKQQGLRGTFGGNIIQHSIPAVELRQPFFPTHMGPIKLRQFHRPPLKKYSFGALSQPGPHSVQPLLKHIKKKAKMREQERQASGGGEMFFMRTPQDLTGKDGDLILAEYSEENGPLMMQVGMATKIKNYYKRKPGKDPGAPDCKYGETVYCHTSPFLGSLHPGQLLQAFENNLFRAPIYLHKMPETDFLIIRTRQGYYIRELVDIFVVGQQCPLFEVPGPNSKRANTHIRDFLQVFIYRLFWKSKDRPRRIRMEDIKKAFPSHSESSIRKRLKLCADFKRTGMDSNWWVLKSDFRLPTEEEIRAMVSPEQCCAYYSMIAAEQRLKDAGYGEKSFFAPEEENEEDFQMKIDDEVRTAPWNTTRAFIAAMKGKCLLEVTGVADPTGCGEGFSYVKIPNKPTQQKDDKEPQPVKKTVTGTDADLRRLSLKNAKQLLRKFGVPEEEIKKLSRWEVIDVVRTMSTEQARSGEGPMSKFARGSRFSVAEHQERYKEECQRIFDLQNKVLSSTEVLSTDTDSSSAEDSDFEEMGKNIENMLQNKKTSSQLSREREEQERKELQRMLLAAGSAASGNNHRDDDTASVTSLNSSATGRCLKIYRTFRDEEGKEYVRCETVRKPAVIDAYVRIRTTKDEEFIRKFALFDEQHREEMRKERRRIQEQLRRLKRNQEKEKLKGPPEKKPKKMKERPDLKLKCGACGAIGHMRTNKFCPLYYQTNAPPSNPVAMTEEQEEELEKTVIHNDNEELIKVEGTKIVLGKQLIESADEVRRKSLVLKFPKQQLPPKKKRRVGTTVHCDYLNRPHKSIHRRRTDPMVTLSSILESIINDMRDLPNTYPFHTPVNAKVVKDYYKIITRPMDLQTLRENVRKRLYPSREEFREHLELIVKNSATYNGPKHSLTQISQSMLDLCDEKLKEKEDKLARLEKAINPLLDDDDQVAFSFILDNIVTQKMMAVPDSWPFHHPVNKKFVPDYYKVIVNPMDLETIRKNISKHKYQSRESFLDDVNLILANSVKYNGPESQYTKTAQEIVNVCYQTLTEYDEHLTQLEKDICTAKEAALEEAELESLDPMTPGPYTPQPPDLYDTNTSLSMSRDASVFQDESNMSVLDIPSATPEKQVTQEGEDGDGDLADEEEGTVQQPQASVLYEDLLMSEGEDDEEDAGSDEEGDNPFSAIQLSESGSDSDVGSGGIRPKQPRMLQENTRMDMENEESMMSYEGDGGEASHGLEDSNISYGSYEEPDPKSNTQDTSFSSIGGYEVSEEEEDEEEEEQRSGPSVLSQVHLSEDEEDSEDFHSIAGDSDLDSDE
assay.overview: Binding affinity to human TAF1 expressed in Escherichia coli BL21(DE3)-R3-pRARE2 assessed as change in melting temperature at 25 uM by SYPRO orange based protein stability shift assay
Mark Criterion not met for ΔTm values under 2 °C, and Criterion met for everything at or above.

Use these answered entries as a reference point.
Cc1noc(C)c1-c1cccc(NC(=O)CCCCCC(=O)NO)c1 : Criterion not met
Cc1noc(C)c1-c1cc(OCCCCC(=O)NO)cc(C(=O)c2ccccc2)c1 : Criterion not met
Cc1noc(C)c1-c1cc(OCCCCCCCC(=O)NO)cc(C(=O)c2ccccc2)c1 : Criterion not met
Cc1noc(C)c1-c1cc(NC(=O)CCCCCC(=O)NO)cc(C(=O)c2ccccc2)c1 : Criterion not met
Cc1noc(C)c1-c1cc(OCCCCCCC(=O)NO)cc(C(=O)c2ccccc2)c1 : Criterion met
Cc1noc(C)c1-c1cc(OCCCCCCC(=O)NO)cc(C(O)c2ccccc2)c1 (centres undefined) : Criterion not met
Cc1noc(C)c1-c1cc(OCCCCCC(=O)NO)cc(C(=O)c2ccccc2)c1 : Criterion not met

Please examine the following record next.
Problem: Has `Cc1noc(C)c1-c1cc(NC(=O)CCCCCCC(=O)NO)cc(C(=O)c2ccccc2)c1` a recorded ΔTm greater than or equal to 2 °C?
Result: Criterion met

---

assayed.target: Bromodomain-containing protein 4 (Homo sapiens)
assay.overview: Inhibition of human BRD4 expressed in Escherichia coli BL21(DE3)-R3-pRARE2 by bromodomain alphascreen peptide displacement assay
measure: IC50
Respond with a number, then the unit of measure.

Examples with answers:
Cc1noc(C)c1-c1cc(OCCCCCC(=O)NO)cc(C(=O)c2ccccc2)c1 : 1380 nM
Cc1noc(C)c1-c1cc(NC(=O)CCCCCCC(=O)NO)cc(C(=O)c2ccccc2)c1 : 670 nM
Cc1noc(C)c1-c1cccc(NC(=O)CCCCCC(=O)NO)c1 : 3730 nM
Cc1noc(C)c1-c1cc(NC(=O)CCCCC(=O)NO)cc(C(=O)c2ccccc2)c1 : 780 nM

Problem: For `Cc1noc(C)c1-c1cc(OCCCCC(=O)NO)cc(C(=O)c2ccccc2)c1` , write its IC50.
Result: 1490 nM

Problem: For `Cc1noc(C)c1-c1cc(NC(=O)CCCCCC(=O)NO)cc(C(=O)c2ccccc2)c1` , write its IC50.
Result: 850 nM

Problem: For `Cc1noc(C)c1-c1cc(OCCCCCCC(=O)NO)cc(C(=O)c2ccccc2)c1` , write its IC50.
Result: 1050 nM

Problem: For Cc1noc(C)c1-c1cc(OCCCCCCC(=O)NO)cc(C(O)c2ccccc2)c1 (centres undefined) , write its IC50.
Result: 770 nM

Problem: For `Cc1noc(C)c1-c1cc(OCCCCCCCC(=O)NO)cc(C(=O)c2ccccc2)c1` , write its IC50.
Result: 2990 nM
